- System: COLO 205 colon
- experiment_summary: NCI-60 one-dose screen, 48 h
- condition_notes: 10 µM unless noted
This is part of a sample that, as a whole, favours compounds with a hit. Of some 83,000 tested, about 20% had one in any assay. Activity calls are given as the source filed them. How the source made its calls: active means growth percent below 10; inactive means the rest.
Possible outcomes: True for active, False for inactive

CCOC(=O)C(NC(=O)C(Cc1ccc(N(CCCl)CCCl)cc1)NC(C)=O)C(C)C (stereo not drawn)
False
CC[C@@]1(O)C[C@H](OC2CC(N(C)C)C(OC3CC(O)C(OC4CCC(=O)C(C)O4)C(C)O3)C(C)O2)c2c(cc3c(c2O)C(=O)c2c(O)ccc(O)c2C3=O)[C@H]1C(=O)OC (stereo partly drawn)
False
CO[C@H](/C(C)=C/C=C/C(C)=C/c1coc(C)n1)[C@H](C)[C@H]1C[C@@H](O)[C@@]2(C)O[C@H]2/C=C/[C@@H](C)[C@@H]2C[C@@H](CC(=O)O2)C[C@H]2O[C@@H]2C(=O)O1
True
Cc1c(N)nc([C@H](CC(N)=O)NC[C@H](N)C(N)=O)nc1C(=O)N[C@H](C(=O)N[C@H](C)[C@@H](O)[C@H](C)C(=O)N[C@H](C(=O)NCCc1nc(-c2nc(C(=O)NCCC[S+](C)C)cs2)cs1)[C@@H](C)O)C(OC1OC(CO)C(O)C(O)C1OC1OC(CO)C(O)C(OC(N)=O)C1O)c1cnc[nH]1 (stereo partly drawn)
False
CCC(=O)OC1CCn2c1nc1c2C(=O)C(C)=C(N2CC2)C1=O (stereo not drawn)
True
CN1CCN(c2ccc([N+](=O)[O-])c3no[n+]([O-])c23)CC1
True
CCC1(O)CC(OC2CC(N(C)C)C(OC3CC4OC5CC(=O)C(C)OC5OC4C(C)O3)C(C)O2)c2c(cc3c(c2O)C(=O)c2c(O)ccc(O)c2C3=O)C1C(=O)OC (stereo not drawn)
True
Cc1ccc(C(=O)OC(C(=O)O)C(OC(=O)c2ccc(C)cc2)C(=O)O)cc1 (stereo not drawn) (tested in a mixture with another compound)
False
